Target: CDK4/Cyclin D1 (Homo sapiens, UniProt P11802)
Sequence (P11802 whole entry): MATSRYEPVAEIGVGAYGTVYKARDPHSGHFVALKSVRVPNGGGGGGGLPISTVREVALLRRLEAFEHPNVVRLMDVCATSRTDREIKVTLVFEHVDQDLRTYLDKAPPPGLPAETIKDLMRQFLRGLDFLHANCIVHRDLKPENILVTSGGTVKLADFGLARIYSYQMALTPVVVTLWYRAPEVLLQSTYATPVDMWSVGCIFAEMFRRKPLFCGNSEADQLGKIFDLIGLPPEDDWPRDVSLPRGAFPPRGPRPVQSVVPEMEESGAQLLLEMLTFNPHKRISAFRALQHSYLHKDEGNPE
Sequence (P24385 whole entry partner): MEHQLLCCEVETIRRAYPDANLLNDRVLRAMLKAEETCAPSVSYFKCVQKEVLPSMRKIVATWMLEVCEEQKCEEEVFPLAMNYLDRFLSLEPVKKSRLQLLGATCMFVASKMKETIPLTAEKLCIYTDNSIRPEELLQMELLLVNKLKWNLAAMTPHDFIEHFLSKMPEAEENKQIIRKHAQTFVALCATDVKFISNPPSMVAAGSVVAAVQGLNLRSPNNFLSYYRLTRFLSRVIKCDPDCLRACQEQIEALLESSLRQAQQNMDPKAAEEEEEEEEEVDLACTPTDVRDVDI
Experiment: inhibition of CDK4/Cyclin D1 kinase, TR-FRET
Conditions: CDK4/Cyclin D1, 1 mM ATP, 0.15 μM Rb (Ser780)-biotin substrate, pH 7.0, 60 min preincubation, 120 min reaction, room temperature; read-out: CDK4D1 IC50
Procedure: Compounds disclosed herein were tested for inhibition of CDK4/Cyclin D1 or CDK6/Cyclin D3 kinase in an assay based on the time-resolved fluorescence-resonance energy transfer (TR-FRET) methodology. […] Plates were incubated at room temperature for 60 minutes, and the TR-FRET signals (ex337 nm, em665 nm/620 nm) were recorded on a PHERAstar FSX plate reader (BMG Labtech). […]
MEASURED_PARAMETER: IC50 (nM)

C[C@@H](N)c1ccnc2c(F)cc(-c3nc(N[C@@H]4CCOC[C@H]4O)ncc3F)cc12 :: 97

A = COC(=O)c1ccnc2c(F)cc(-c3nc(N[C@@H]4CCOC[C@H]4O)ncc3F)cc12
B = CC(C)(O)c1ccnc2c(F)cc(-c3nc(N[C@@H]4CCOC[C@H]4O)ncc3F)cc12
Two entries are listed, A and B . Which one carries the higher IC50? Response format: the label of the selected entry.
A

----------
Molecular target: CDK6/Cyclin D3 (Homo sapiens, UniProt Q00534)
Sequence (Q00534 whole entry): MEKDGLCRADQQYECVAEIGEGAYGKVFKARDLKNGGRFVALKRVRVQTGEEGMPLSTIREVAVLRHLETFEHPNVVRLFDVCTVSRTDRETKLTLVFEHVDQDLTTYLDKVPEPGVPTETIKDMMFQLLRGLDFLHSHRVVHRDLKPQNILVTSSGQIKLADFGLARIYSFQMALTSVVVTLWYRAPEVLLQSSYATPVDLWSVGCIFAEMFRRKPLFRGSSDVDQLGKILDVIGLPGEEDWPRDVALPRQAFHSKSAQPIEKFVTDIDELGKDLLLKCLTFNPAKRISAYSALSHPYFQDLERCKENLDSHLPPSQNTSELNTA
Sequence (P30281 whole entry partner): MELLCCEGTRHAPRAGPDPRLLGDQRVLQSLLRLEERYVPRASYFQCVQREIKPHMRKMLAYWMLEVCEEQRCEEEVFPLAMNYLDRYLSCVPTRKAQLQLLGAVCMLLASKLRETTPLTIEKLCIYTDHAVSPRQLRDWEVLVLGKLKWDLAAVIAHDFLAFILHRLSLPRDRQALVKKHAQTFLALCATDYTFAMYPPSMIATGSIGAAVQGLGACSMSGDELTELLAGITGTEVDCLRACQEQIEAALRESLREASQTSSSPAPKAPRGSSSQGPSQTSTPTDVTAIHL
Assay: inhibition of CDK6/Cyclin D3 kinase, TR-FRET
Conditions: CDK6/Cyclin D3, 1 mM ATP, 0.15 μM Rb (Ser780)-biotin substrate, pH 7.0, 60 min preincubation, 120 min reaction, room temperature; read-out: CDK6D3 IC50
MEASURED_PARAMETER: IC50 (nM)

COC(=O)c1ccnc2c(F)cc(-c3nc(N[C@@H]4CCOC[C@H]4O)ncc3F)cc12 :: 688
C[C@@H](N)c1ccnc2c(F)cc(-c3nc(N[C@@H]4CCOC[C@H]4O)ncc3F)cc12 :: 2380
C[C@H](N)c1ccnc2c(F)cc(-c3nc(N[C@@H]4CCOC[C@H]4O)ncc3F)cc12 :: 760
CC(C)(C)OC(=O)N1CCC(Nc2ncc(F)c(-c3cc(F)c4nccc(C(C)(C)O)c4c3)n2)CC1 :: 1700
Cc1cc(C(C)(C)O)c2cc(-c3nc(N[C@@H]4CCOC[C@H]4O)ncc3F)cc(F)c2n1 :: 249

1 = CC(C)(O)c1ccnc2c(F)cc(-c3nc(NC4CCNCC4)ncc3F)cc12
2 = CC(C)(O)c1ccnc2c(F)cc(-c3nc(N[C@@H]4CCOC[C@H]4O)ncc3F)cc12
Problem: Given the entries 1 and 2 , determine which has the lower reported IC50. Response format: the label of the selected entry.
2
(2: 84 nM, 1: 220 nM)

Data provenance is patent US20260347346A1.
